# protocol.details: solubility of compound A
# Format: physicochemical
# test.settings: irrespective of pH
assay.readout: solubility

Looking for the measured solubility of "CCC(=O)NCC[C@@H]1CCc2ccc3c(c21)CCO3" , can you help? ~200 µg/mL

----------
# protocol.details: randomized open-label pharmacokinetic study of oral-mucosal tablets versus oral 8 mg tablet
# Assay type: in vivo, human
# test.settings: human serum, single oral-mucosal tablet dose of Compound A 0.25 mg, mean, N=6; measurement substance = label
AUC(0-t) values, listed per item
Answer in ng·h/mL, number only, no unit symbol.

Field request: AUC(0-t) | item: "C[C@H](O)C(=O)NCC[C@@H]1CCc2ccc3c(c21)CCO3" 4.64

Okay, next one:
So what's the measured AUC(0-t) for this one? "CCC(=O)NCC[C@@H]1CCc2ccc3c(c21)CCO3" 2.6

----------
# protocol.details: randomized open-label pharmacokinetic study of oral-mucosal tablets versus oral 8 mg tablet
# Format: in vivo, human
# test.settings: human serum, single oral-mucosal tablet dose of Compound A 1 mg, mean, N=6; measurement substance = label
assay.readout: Cmax (ng/mL)
Give the value, in units of ng/mL, as a plain number.

Can you look up the measured Cmax of C[C@H](O)C(=O)NCC[C@@H]1CCc2ccc3c(c21)CCO3 [M-II] for me? 7.68

Pending molecule:
Returns the measured Cmax for the input molecule. Input: CCC(=O)NCC[C@@H]1CCc2ccc3c(c21)CCO3 [compound A] 9.57
